# System: SK-OV-3 ovarian
# Assay Remarks: NCI-60 one-dose screen, 48 h (100 = growth as untreated, 0 = no growth, -100 = all killed)
# Particulars: 10 µM unless noted
The panel holds about 83,000 compounds, 20% with a hit somewhere; the sample as a whole holds those more often.
compounds and their reported growth
Give just the number in %; leave the unit off.

Known growth results, listed for orientation:
- Structure As Smiles: "O=C(Cn1c(/C=C/c2ccc([N+](=O)[O-])cc2)nc2ccccc2c1=O)Nc1ccccc1"
  Measured Result: 71.9
- Structure As Smiles: "O=C(N/N=C/c1ccc(-c2cccc([N+](=O)[O-])c2)s1)c1[nH]c2ccc(Br)cc2c1-c1ccccc1"
  Measured Result: 93.4
- Structure As Smiles: "COc1ccc(NC(=O)CSc2nnc(-c3ccc(-c4nc5ccccc5[nH]4)cc3)o2)cc1"
  Measured Result: 98.2
- Structure As Smiles: "O=C(N/N=C/c1ccc(Cl)cc1)c1ccc(OCc2nc3ccc(Cl)cc3[nH]2)cc1"
  Measured Result: 14.5
- Structure As Smiles: "O=C(N/N=C/c1occc1Br)c1[nH]c2ccc(Br)cc2c1-c1ccccc1"
  Measured Result: -85.3
- Structure As Smiles: "CC1=C(C)C(=O)C(NCCN2CCOCC2)=C(Br)C1=O"
  Measured Result: 87.5
- Structure As Smiles: "CCC(=O)c1c2c(c3ccc4c5ccccc5ccc4n13)C(=O)c1ccccc1C2=O"
  Measured Result: 105
- Structure As Smiles: "CC(=O)c1ccc2c(N)c(C(=O)Nc3ccc(C(F)(F)F)cc3)sc2n1"
  Measured Result: 89.1

[ask] Name the reported growth value associated with the compound C[C@@H]1[C@H]2C[C@@H](C[C@H]1NCc1nc3ccccc3n1C1CCCCCC1)C2(C)C
[reply] 90.4

[ask] Then this compound: CCCCCCCCCCCCCCCCCC(=O)Nc1ccc(OC)cc1
[reply] 115
